tested on: HeLa cancer cells; assay: MTT antiproliferative assay, HeLa; type: cell-based, human; details: 24 h drug exposure
endpoint_label: IC50 (µM)

# compound, endpoint_label, measured_number
data = [
    ("N.N.[Cl][Pt][Cl] [cisplatin]", "IC50", 7.5),
]

====

test system: HepG2 cancer cells; test: MTT antiproliferative assay, HepG2; type: cell-based; settings: 24 h drug exposure
endpoint_label: IC50 (µM)

# compound, endpoint_label, measured_number
records = [
    ("N.N.[Cl][Pt][Cl] [cisplatin]", "IC50", 22.7),
]
